Please respond with reported self-cleavage kobs at 160 uM GlcN6P for every item in the list.
B1: glmS ribozyme (parent)
chain: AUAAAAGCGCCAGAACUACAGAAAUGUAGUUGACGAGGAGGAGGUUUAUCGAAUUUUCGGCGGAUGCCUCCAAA

# Variants of: B1
# testName: self-cleavage kobs at 160 uM GlcN6P; higher = faster cleavage; RNA array
# protocolConditions: with glucosamine-6-phosphate
Variants at the floor of the assay were thinned out.

[in] Item under review: C34A A42G G66U . Reported self-cleavage kobs at 160 uM GlcN6P?
[out] < 1e-05 s⁻¹

[in] Follow-up entry: C8G G62C
[out] < 1e-05 s⁻¹

[in] Follow-up entry: U31A A42C C70G
[out] < 1e-05 s⁻¹

[in] Follow-up entry: C10G A36C
[out] < 1e-05 s⁻¹

[in] Follow-up entry: C11A G29A C34A U57C
[out] < 1e-05 s⁻¹

[in] Follow-up entry: C8U A33G C34G A36U U65C
[out] < 1e-05 s⁻¹

[in] Follow-up entry: A6C G7A
[out] < 1e-05 s⁻¹

[in] Follow-up entry: G32C C34U A36U C61U
[out] < 1e-05 s⁻¹

[in] Follow-up entry: C11G G32A G59C
[out] < 1e-05 s⁻¹

[in] Follow-up entry: C11U U65C
[out] < 1e-05 s⁻¹

[in] Follow-up entry: C10A G35C G51U
[out] < 1e-05 s⁻¹

[in] Follow-up entry: C34U C70U
[out] < 1e-05 s⁻¹

[in] Follow-up entry: C16A C50G U55C G63C C70G
[out] 0.000129 s⁻¹

[in] Follow-up entry: G13U A33U U57C
[out] < 1e-05 s⁻¹

[in] Follow-up entry: G35C G62U A64U
[out] < 1e-05 s⁻¹

[in] Follow-up entry: A6U U31A G43U
[out] < 1e-05 s⁻¹

[in] Follow-up entry: G38C G60C C71G
[out] < 1e-05 s⁻¹

[in] Follow-up entry: G9U U31A C71U
[out] < 1e-05 s⁻¹

[in] Follow-up entry: A36C G38C G63A
[out] < 1e-05 s⁻¹

[in] Follow-up entry: C34U G40U C71U
[out] < 1e-05 s⁻¹

[in] Follow-up entry: G29U A42U A48U G62A
[out] < 1e-05 s⁻¹

[in] Follow-up entry: G32A G37C
[out] < 1e-05 s⁻¹

[in] Follow-up entry: G9U C16U U57G C68U
[out] < 1e-05 s⁻¹

[in] Follow-up entry: A39C C50G
[out] < 1e-05 s⁻¹

[in] Follow-up entry: G13C A14G G32A
[out] 0.000606 s⁻¹

[in] Follow-up entry: U31C G40A A53U
[out] 9.65e-05 s⁻¹

[in] Follow-up entry: A20U U56C
[out] 0.000306 s⁻¹

[in] Follow-up entry: C8U A42G G63A
[out] < 1e-05 s⁻¹

[in] Follow-up entry: C11A G43C C61G
[out] < 1e-05 s⁻¹

[in] Follow-up entry: A15C U30G C34U G40A U55A
[out] < 1e-05 s⁻¹

[in] Follow-up entry: A33G G44U
[out] < 1e-05 s⁻¹

[in] Follow-up entry: G9U A14U U47A
[out] < 1e-05 s⁻¹

[in] Follow-up entry: G38U C68A
[out] 7.69e-05 s⁻¹

[in] Follow-up entry: G38C G44U C67G
[out] < 1e-05 s⁻¹

[in] Follow-up entry: A14U A39C A52C
[out] < 1e-05 s⁻¹

[in] Follow-up entry: G7U G35A G59C
[out] < 1e-05 s⁻¹

[in] Follow-up entry: A6C G9A U45A
[out] < 1e-05 s⁻¹

[in] Follow-up entry: A6U G35C
[out] < 1e-05 s⁻¹

[in] Follow-up entry: A12U U30A U45A A53U G62C
[out] < 1e-05 s⁻¹

[in] Follow-up entry: A14C A39G C58G G60U G62U
[out] < 1e-05 s⁻¹

[in] Follow-up entry: C11A A14C G35A C50G C71G
[out] 0.000211 s⁻¹

[in] Follow-up entry: A12C G35C
[out] < 1e-05 s⁻¹

[in] Follow-up entry: G38U A39G G41C A42U U57C
[out] < 1e-05 s⁻¹

[in] Follow-up entry: A15C C34A G44U
[out] < 1e-05 s⁻¹

[in] Follow-up entry: C11A C16U G44U A53G C71G
[out] < 1e-05 s⁻¹

[in] Follow-up entry: G7U C16U
[out] < 1e-05 s⁻¹

[in] Follow-up entry: A12U C34U
[out] < 1e-05 s⁻¹

[in] Follow-up entry: G7U A15U G51U C61U C67G
[out] < 1e-05 s⁻¹

[in] Follow-up entry: A33G G41U C50U C71U
[out] < 1e-05 s⁻¹

[in] Follow-up entry: A15C G60C C61U
[out] < 1e-05 s⁻¹

[in] Follow-up entry: A12G U56C G60A
[out] < 1e-05 s⁻¹

[in] Follow-up entry: C11A A53C C67G
[out] < 1e-05 s⁻¹

[in] Follow-up entry: G35A C50A
[out] < 1e-05 s⁻¹

[in] Follow-up entry: A14G A39G U69A
[out] 0.000285 s⁻¹

[in] Follow-up entry: A6C U49A C50U
[out] < 1e-05 s⁻¹

[in] Follow-up entry: A12G G51U G66A
[out] < 1e-05 s⁻¹

[in] Follow-up entry: C19A C34G A39C
[out] < 1e-05 s⁻¹

[in] Follow-up entry: A33C G35A G51C
[out] < 1e-05 s⁻¹

[in] Follow-up entry: G7U A12C U54A C58A C70G
[out] < 1e-05 s⁻¹

[in] Follow-up entry: G13U G44U C68U
[out] < 1e-05 s⁻¹

[in] Follow-up entry: G13A G51A C70A
[out] 6.55e-05 s⁻¹

[in] Follow-up entry: G21U C71G
[out] 0.000226 s⁻¹

[in] Follow-up entry: G35A U57A
[out] < 1e-05 s⁻¹

[in] Follow-up entry: C10A A39U U69G
[out] < 1e-05 s⁻¹

[in] Follow-up entry: A39C U47A C50A U56C
[out] < 1e-05 s⁻¹

[in] Follow-up entry: G7U G51U
[out] < 1e-05 s⁻¹

[in] Follow-up entry: A15G C16G A42G C67G
[out] 7.28e-05 s⁻¹

[in] Follow-up entry: G13A A53C C67G
[out] < 1e-05 s⁻¹

[in] Follow-up entry: C10G G13U A15C
[out] < 1e-05 s⁻¹

[in] Follow-up entry: A6C C10A G35A C58G C70G
[out] 4.89e-05 s⁻¹

[in] Follow-up entry: U31G A33C U46G A53G G59A G63A
[out] < 1e-05 s⁻¹

[in] Follow-up entry: A12C C16U A53G U65G
[out] 9.62e-05 s⁻¹

[in] Follow-up entry: A6C G40A A52G C67U
[out] < 1e-05 s⁻¹

[in] Follow-up entry: G38A A39C U57A
[out] < 1e-05 s⁻¹

[in] Follow-up entry: G9C G29U C50G C70G
[out] 0.000652 s⁻¹

[in] Follow-up entry: G7A G35U
[out] < 1e-05 s⁻¹

[in] Follow-up entry: G29A U65A C70U
[out] 7.19e-05 s⁻¹

[in] Follow-up entry: G9C G44U
[out] < 1e-05 s⁻¹

[in] Follow-up entry: C8G A14G C34G
[out] < 1e-05 s⁻¹

[in] Follow-up entry: G29U U69C
[out] 3.84e-05 s⁻¹

[in] Follow-up entry: A36C G37C A52U A64G C70G
[out] < 1e-05 s⁻¹

[in] Follow-up entry: C11G G37C G40A U45A C70U
[out] < 1e-05 s⁻¹

[in] Follow-up entry: C11U U47A
[out] 9.6e-05 s⁻¹

[in] Follow-up entry: A6C G37C U65A
[out] < 1e-05 s⁻¹

[in] Follow-up entry: C11G A12U G13U C58U C68G
[out] 7.71e-05 s⁻¹

[in] Follow-up entry: A15G A36U C50A G60A
[out] < 1e-05 s⁻¹

[in] Follow-up entry: U30A G32A A39G
[out] 6.92e-05 s⁻¹

[in] Follow-up entry: U30G G43A U47G
[out] < 1e-05 s⁻¹

[in] Follow-up entry: A12G G59C G63C C67A
[out] < 1e-05 s⁻¹

[in] Follow-up entry: A6G G40U U54A
[out] < 1e-05 s⁻¹

[in] Follow-up entry: A33C U69C
[out] < 1e-05 s⁻¹
